# Tested on: NCI-H460 lung
# test_method_notes: NCI-60 one-dose screen, 48 h (100 = growth as untreated, 0 = no growth, -100 = all killed)
# condition_context: 10 µM unless noted
Compounds without any hit were thinned out: in the full panel of roughly 83,000, 20% have a hit.
// growth lookup, one value per entry
quantity_kind: growth (%)

CN1CCN(CCCOc2cccc3nc(Nc4ccc(Cl)c(C(F)(F)F)c4)ccc23)CC1	-19.3
CNC(=O)c1cc(Oc2ccc(NC(=O)Nc3ccc(Cl)c(C(F)(F)F)c3)c(F)c2)ccn1	-35.4
CCc1cnn2c(NCc3ccc[n+]([O-])c3)cc(N3CCCC[C@H]3CCO)nc12	1.82
CC12O[C@H](C[C@@H](OC(=O)CCC(=O)O)[C@H]1O)n1c3ccccc3c3c4c(c5c6ccccc6n2c5c31)C(=O)NC4=O	20.2
CNC(=O)c1cnc(C)nc1-c1cc(C(C)(C)C)c(O)c(C(C)(C)C)c1	108
COc1cc(C2CC(c3ccc(Cl)cc3)=NN2c2ccc(Cl)cc2)cc(OC)c1OC (centres undefined)	97.1
Cc1cc2c(F)c(Oc3ncnn4cc(OC[C@@H](C)OC(=O)[C@H](C)N)c(C)c34)ccc2[nH]1	38.7
CC(C)OP(=O)(CCC(=O)c1c[nH]c2ccccc12)OC(C)C	114
O=C1CCC(=O)CC1	104
